target: SARS-CoV-2 3CLpro (Severe acute respiratory syndrome coronavirus 2); assay: biochemical; format: biochemical; settings: FRET assay, 30 tested compounds
REPORTED ENDPOINT: inhibition activity against SARS-CoV-2 3CLpro in vitro (in words)

COMPOUND: CN(C)[C@@H]1C(O)=C(C(N)=O)C(=O)[C@@]2(O)C(O)=C3C(=O)c4c(O)c(NC(=O)CN5CCCC5)cc(F)c4C[C@H]3C[C@@H]12 [ERAVACYCLINE diHcl]
RESULT: active in vitro

COMPOUND: O=C(/C=C/c1ccc(O)c(O)c1)OC1CC(OC(=O)/C=C/c2ccc(O)c(O)c2)(C(=O)O)CC(O)C1O (stereo not shown)
RESULT: active in vitro

COMPOUND: COc1cccc(OCCCN)c1-c1cc(Nc2cnc(C#N)cn2)n[nH]1 [PREXASERTIB diHCl]
RESULT: active in vitro
